- Test system: Escherichia coli
- Method notes: Antibacterial activity against Escherichia coli NIHJ JC-2 after 20 hrs by agar dilution method
- Format: functional
- Condition: NIHJ JC-2, 20 h
Quantity kind: MIC (mg/L)

molecule=CCO/N=C(\C(=O)N[C@@H]1C(=O)N2C(C(=O)[O-])=C(/C=C/C[n+]3cccc4cc(/C([O-])=N/C#N)[nH]c43)CS[C@H]12)c1csc(N)n1.[Na+] unit_string=mg/L observed_result=0.125
molecule=CCO/N=C(\C(=O)N[C@@H]1C(=O)N2C(C(=O)[O-])=C(C[n+]3ccc(-c4cc(/C([O-])=N/C#N)[nH]n4)cc3)CS[C@H]12)c1nc(N)sc1Cl.[Na+] unit_string=mg/L observed_result=2
molecule=CCO/N=C(\C(=O)N[C@@H]1C(=O)N2C(C(=O)[O-])=C(/C=C/C[n+]3ccc4[nH]c(/C([O-])=N/C#N)cc4c3)CS[C@H]12)c1csc(N)n1.[Na+] unit_string=mg/L observed_result=0.25
molecule="CO/N=C(\\C(=O)N[C@@H]1C(=O)N2C(C(=O)[O-])=C(C[n+]3ccc(-c4cc(/C([O-])=N/C#N)[nH]n4)cc3)CS[C@H]12)c1csc(N)n1.[Na+] (stereo in doubt)" unit_string=mg/L observed_result=0.25
molecule=CCO/N=C(\C(=O)N[C@@H]1C(=O)N2C(C(=O)[O-])=C(/C=C/C[n+]3ccc(-c4cc(/C([O-])=N/C#N)on4)cc3)CS[C@H]12)c1csc(N)n1.[Na+] unit_string=mg/L observed_result=0.125

====

- Tested on: Haemophilus influenzae
- Method notes: Antibacterial activity against beta-lactamase non-producing penicillin-resistant Haemophilus influenzae SR11435 after 20 hrs by agar dilution method
- Assay type: functional
- Condition: SR11435, 20 h
Quantity kind: MIC (µg/mL)

compound=CCO/N=C(\C(=O)N[C@@H]1C(=O)N2C(C(=O)[O-])=C(/C=C/C[n+]3ccc(-c4c[nH]c(/C([O-])=N/C#N)c4)cc3)CS[C@H]12)c1csc(N)n1.[Na+] experimental_system="Haemophilus influenzae" observed_result=0.063
compound=CCO/N=C(\C(=O)N[C@@H]1C(=O)N2C(C(=O)[O-])=C(/C=C\C[n+]3ccc(-c4cc(/C([O-])=N/C#N)[nH]n4)cc3)CS[C@H]12)c1csc(N)n1.[Na+] experimental_system="Haemophilus influenzae" observed_result=0.25
compound=CCO/N=C(\C(=O)N[C@@H]1C(=O)N2C(C(=O)[O-])=C(/C=C/C[n+]3cccc(/C([O-])=N/C#N)c3)CS[C@H]12)c1csc(N)n1.[Na+] experimental_system="Haemophilus influenzae" observed_result=0.063
compound=CCO/N=C(\C(=O)N[C@@H]1C(=O)N2C(C(=O)[O-])=C(/C=C/C[n+]3ccc(-c4csc(/C([O-])=N/C#N)c4)cc3)CS[C@H]12)c1csc(N)n1.[Na+] experimental_system="Haemophilus influenzae" observed_result=0.063
compound=CCO/N=C(\C(=O)N[C@@H]1C(=O)N2C(C(=O)[O-])=C(/C=C/C[n+]3cccc4cc(/C([O-])=N/C#N)ccc43)CS[C@H]12)c1csc(N)n1.[Na+] experimental_system="Haemophilus influenzae" observed_result=0.031
compound=CCO/N=C(\C(=O)N[C@@H]1C(=O)N2C(C(=O)[O-])=C(/C=C/C[n+]3ccc(-c4csc(/C([O-])=N/C#N)n4)cc3)CS[C@H]12)c1csc(N)n1.[Na+] experimental_system="Haemophilus influenzae" observed_result=0.063
compound=CCO/N=C(\C(=O)N[C@@H]1C(=O)N2C(C(=O)[O-])=C(/C=C/C[n+]3ccc(/C([O-])=N/C#N)cc3)CS[C@H]12)c1csc(N)n1.[Na+] experimental_system="Haemophilus influenzae" observed_result=0.063
compound=CCO/N=C(\C(=O)N[C@@H]1C(=O)N2C(C(=O)[O-])=C(/C=C/C[n+]3ccc(-c4nc(/C([O-])=N/C#N)cs4)cc3)CS[C@H]12)c1csc(N)n1.[Na+] experimental_system="Haemophilus influenzae" observed_result=0.031
compound=CCO/N=C(\C(=O)N[C@@H]1C(=O)N2C(C(=O)[O-])=C(/C=C/C[n+]3ccc(-c4cc(/C([O-])=N/C#N)n(C)n4)cc3)CS[C@H]12)c1csc(N)n1.[Na+] experimental_system="Haemophilus influenzae" observed_result=0.063
compound="CCO/N=C(\\C(=O)N[C@@H]1C(=O)N2C(C(=O)[O-])=C(C[n+]3ccc(-c4cc(/C([O-])=N/C#N)[nH]n4)cc3)CS[C@H]12)c1csc(N)n1.[Na+] (stereo in doubt)" experimental_system="Haemophilus influenzae" observed_result=0.063
compound="CCCO/N=C(\\C(=O)N[C@@H]1C(=O)N2C(C(=O)[O-])=C(C[n+]3ccc(-c4cc(/C([O-])=N/C#N)[nH]n4)cc3)CS[C@H]12)c1csc(N)n1.[Na+] (stereo in doubt)" experimental_system="Haemophilus influenzae" observed_result=0.063
compound=CCO/N=C(\C(=O)N[C@@H]1C(=O)N2C(C(=O)[O-])=C(/C=C/C[n+]3ccc(-n4ccc(/C([O-])=N/C#N)n4)cc3)CS[C@H]12)c1csc(N)n1.[Na+] experimental_system="Haemophilus influenzae" observed_result=0.063
compound=CCO/N=C(\C(=O)N[C@@H]1C(=O)N2C(C(=O)[O-])=C(/C=C/C[n+]3ccc4sc(/C([O-])=N/C#N)nc4c3)CS[C@H]12)c1csc(N)n1.[Na+] experimental_system="Haemophilus influenzae" observed_result=0.063
compound=CCO/N=C(\C(=O)N[C@@H]1C(=O)N2C(C(=O)[O-])=C(/C=C/C[n+]3ccc(-c4c[nH]c(/C([O-])=N/C#N)c4C)cc3)CS[C@H]12)c1csc(N)n1.[Na+] experimental_system="Haemophilus influenzae" observed_result=0.063
compound=CCO/N=C(\C(=O)N[C@@H]1C(=O)N2C(C(=O)[O-])=C(/C=C/C[n+]3cccc4[nH]c(/C([O-])=N/C#N)cc43)CS[C@H]12)c1csc(N)n1.[Na+] experimental_system="Haemophilus influenzae" observed_result=0.031
